- Tested on: KM12 colon
- methodSummary: NCI tumour cell line growth inhibition, 48 h
Assign TGI to each entry below.
Response body: numeric value in µM, unit text excluded.

Short answer on KM12 colon for CC(=O)c1csc2c1C(=O)c1scc(C(C)=O)c1C2=O , TGI: 3.53

Short answer on KM12 colon for O=C1/C(=C\c2ccc([N+](=O)[O-])o2)SC2N=C(COc3ccc(Cl)cc3)NN12 (stereo not given) , TGI: 28.4

Short answer on KM12 colon for CCN(CC)CCOc1ccc(/C(=C(\C)c2ccc(F)c(OC)c2)c2ccc(Cl)cc2)cc1 , TGI: 4.73

###

- System: EKVX NSCLC
- methodSummary: NCI tumour cell line growth inhibition, 48 h; in the data active means GI50 below about 0.43 µM; inactive means the rest
Returns: one label drawn from active, inactive

Please indicate how the test categorized COc1cc(NC(C)CCCN)c2nccc(C)c2c1OC (stereo unspecified) .
inactive

Please indicate how the test categorized Fc1ccc(Nc2cc(-n3nnc4ccccc43)nc3ccccc23)cc1 .
inactive

Please indicate how the test categorized COc1ccc(C2C(C#N)=C(N)OC3=C2COc2ccc(F)cc23)cc1OC (stereo unspecified) .
inactive

Please indicate how the test categorized O=C(Nc1cccc(Cl)c1Cl)c1cccc(NC2=C(Cl)C(=O)N(Cc3ccccc3)C2=O)c1 .
inactive

Please indicate how the test categorized Nc1ccncc1/C=C1/C(=O)Nc2ccccc21 .
inactive

Please indicate how the test categorized CC(=O)O[C@@H]1C[C@]2(C(C)C)O[C@@]1(C)[C@@H]1CCC(C)=C1[C@@H]2OC(=O)/C=C/c1ccccc1 .
inactive

Please indicate how the test categorized Cc1ccc(Nc2nc(N)c(C(=O)c3ccc(C#N)cc3)s2)cc1 .
inactive

Please indicate how the test categorized COc1cc2cn3c4ccc(O)cc4[nH]c(=O)c3c2cc1OC .
active

Please indicate how the test categorized Cc1c[n+](Cc2ccc3ccccc3c2)cn1Cc1ccc2ccccc2c1 .
inactive

Please indicate how the test categorized C#CC(=O)Nc1cccc(Nc2nc3c(c(NCc4ccccc4)n2)CCCC3)c1 .
active

Please indicate how the test categorized CCOC(=O)N1CCN(C(=O)c2ccc(C(F)(F)F)nc2Nc2cc(Cl)ccc2C)CC1 .
inactive

###

- Tested on: TK-10 renal
- methodSummary: NCI tumour cell line growth inhibition, 48 h; in the data active = GI50 below about 0.43 µM; inactive = the rest
Returns: one label drawn from active, inactive

Please indicate how the test categorized COc1cc(NC(C)CCCN)c2nccc(C)c2c1OC (configuration not stated) .
inactive

Please indicate how the test categorized Cc1[nH]n(-c2cccc(Cl)c2)c(=O)c1/C=C1\C=Nc2ccc(Br)cc21 .
inactive

Please indicate how the test categorized Cc1n(Cc2ccc3ccccc3c2)cc[n+]1Cc1ccc2ccccc2c1 .
inactive

Please indicate how the test categorized COc1cc2cn3c4ccc(O)cc4[nH]c(=O)c3c2cc1OC .
active

Please indicate how the test categorized CCN(CC)CC(C)(C)C(=O)/C=C/c1ccc(Cl)c(Cl)c1 .
inactive

Please indicate how the test categorized O=C(Nc1ccc(Cl)cc1F)c1cc(Br)ccc1O .
inactive

Please indicate how the test categorized COc1ccc(/C=c2/sc3n(c2=O)C(c2ccc(OC)c(OC)c2)C2=C(N=3)c3cc(F)ccc3OC2)cc1 (configuration not stated) .
inactive

Please indicate how the test categorized O=C1/C(=C\c2cccn2Cc2ccccc2)c2ccccc2N1c1c(Cl)cccc1Cl .
inactive

Please indicate how the test categorized COc1ccc(C2C(C#N)=C(N)OC3=C2COc2ccc(F)cc23)cc1OC (configuration not stated) .
inactive

Please indicate how the test categorized OCCCCC#Cc1ccccc1C#Cc1cccc(O)c1 .
inactive

Please indicate how the test categorized C#CC(=O)Nc1cccc(Nc2nc3c(c(NCc4ccccc4)n2)CCCC3)c1 .
inactive

Please indicate how the test categorized Cc1sc2nc(NCCc3c[nH]c4ccc(Cl)cc34)[nH]c(=O)c2c1C .
inactive

Please indicate how the test categorized C#C[C@]1(O)CC[C@H]2[C@@H]3CC=C4c5sc(Nc6ccccc6)nc5CC[C@]4(C)[C@H]3CC[C@@]21C .
inactive

Please indicate how the test categorized Cc1cn2c(/C=C3/C(=O)Nc4ccccc43)c(-c3ccc(Cl)cc3)nc2s1 .
inactive

Please indicate how the test categorized CC(=O)OCC1OC([S-])C(OC(C)=O)C(OC(C)=O)C1OC(C)=O.CC[PH+](CC)CC.CC[PH+](CC)CC.[Au].[Au] (configuration not stated) .
inactive

Please indicate how the test categorized O=C(O)c1cc(O)c2c(c1)C(C1c3cc(C(=O)O)cc(O)c3C(=O)c3c(OC4OC(CO)C(O)C(O)C4O)cccc31)c1cccc(OC3OC(CO)C(O)C(O)C3O)c1C2=O (configuration not stated) .
inactive

Please indicate how the test categorized COc1ccc(-c2cc(-c3cccn3C)c(C#N)c(N)n2)cc1OC .
inactive

Source of measurements: PubChem BioAssay (NCI)
